The reported numbers originate from the RNAGym collection of RNA variant scans (doi:10.7554/elife.90254).

B1: OR4K15 (parent)
chain: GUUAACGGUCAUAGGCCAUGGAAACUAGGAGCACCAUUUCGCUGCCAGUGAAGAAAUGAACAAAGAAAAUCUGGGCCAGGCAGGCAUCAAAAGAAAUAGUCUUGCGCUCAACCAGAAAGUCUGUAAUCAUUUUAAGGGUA

# Variants of: B1
# Test details: self-cleavage, relative activity (ratio to wild type); higher = more cleavage; in vitro, sequencing; the parent is a self-cleaving ribozyme
Decision: self-cleavage >= 0.8 yields Criterion met, all other cases yield Criterion not met.

Does self-cleavage meet or surpass 0.8 for GUUAACGGUCAUAGGCCAUGGAAACUAGGAGCACCAUUUCGCUGCCAGAGAAGAAAUGAACAAAGAAAAUCUGGGCCAGGCAGGCAUCAAAAGAAAUAGUCUUGCGCCCAACCAGAAAGUCUGUAAUCAUUUUAAGGGUA [U49A U108C] ?
Criterion not met

// inclusive: self-cleavage at least 0.8? input: GUUAACGGUCAUAGGCCAUGGAAACUUGGAGCACCAUUUCGCUGCCAGUGAAGAAAUGAACAAAGAAAAUCUGGGCCAGGCAGGCAUCAAAGGAAAUAGUCUUGCGCUCAACCAGAAAGUCUGUAAUCAUUUUAAGGGUA [A27U A92G]
Criterion met

Kindly determine if self-cleavage recorded for GUUAACGGUCAUAGGCCAUGGAAACUAGGAGCACCAUUUCGCUGCCAGUGAAGAAAUGAACAAAGAAAAUCUGGGCCAGGCAGGCACCAAAAGAAAUAGUCUUGCGCUCAACCAGAAAGCCUGUAAUCAUUUUAAGGGUA [U87C U120C] is above or exactly 0.8.
Criterion not met

Check if self-cleavage >= 0.8 (inclusive). Item: GUUAACGGUCAUAGGCCAUGGAAACUAGGAGCACCAUUUCGCUGCCAGUGAAGAAAUGAACAAAGAAAGUCUGGGCCAGGCAGGCAUCAAAAGAAAUAGUCUUGCGCUCAACCAGAAAGUCUGUAAUCAUCUUAAGGGUA [A69G U131C]
Criterion not met

Kindly determine if self-cleavage recorded for GUUAACGGUCUUAGGCCAUGGAAACUAGGAGCACCAUUUCGCUGCCAGUGAAGAAAUGAACAAAGAAAAUCUGGGCCAGGCAGGCAUCAAAAGAAAUAGUCUUGCGCUCAACCAGAAAGUCCGUAAUCAUUUUAAGGGUA [A11U U122C] is above or exactly 0.8.
Criterion not met

Decide: is the reported value of self-cleavage for GUUAACGGUCAUAGGCCAUGGAAACUAGGAGCACCAUUUCGCUGCCAGUGAAGAAAUGAACAAAGAAAAUCUGGACCAGGCAGGCAUCAAAAGAAAUAGUCUUGCGCUCAACCAGAAAGUCUGUAAUCAUUUUAAGGAUA [G75A G138A] equal to or greater than 0.8?
Criterion not met

Decide: is the reported value of self-cleavage for GUUAACGGUCAUAGGCCAUGGAAACUAGGAGCACCAUUUCGCUGCCAGUGAAGAAAUGAACAAAGAAAAUCUGGCCCAGGCAGGCAUCAAAAGAAACAGUCUUGCGCUCAACCAGAAAGUCUGUAAUCAUUUUAAGGGUA [G75C U97C] equal to or greater than 0.8?
Criterion not met

Does the reported self-cleavage for GUUAACGGUCAUAGGCCAUGGAUACUAGGAGCACCAUUUCGCUGCCAGUGAAGAAAUGAACAAAGAAAAUCUGGGCCAGGCAGGCAUCAAAAGAAAUAGUCUUGCGCUCAACCAUAAAGUCUGUAAUCAUUUUAAGGGUA [A23U G115U] fall at or above the 0.8 mark?
Criterion not met

Dear colleague, could you confirm whether GUUAACGGUCAUAGGCCAUGGAAACUAGGAGCACCAUUUCGCAGCCAGUGAAGAAAUGAACAAAGAAAAUCUGGGCCAGGCAGGCAUCAAAAGAAAUAGUCUUGCGCUCAACCAGAAAGUCUGUAAUCAUUUUACGGGUA [U43A A135C] has self-cleavage at or above 0.8?
Criterion met

Hello, I need to know if GUUAACGGUCAUAGGCCAUGGAAACUAGGAGCACCAUUUCGCUGCCAGUGAAGAAAUGAACAAAGAAAAUCUGGGCCAGGCAGGCAUCAAAAGAAAUAGUCUUGCGCUCAACCAGAAAGUCUGUAACCAUUUUAGGGGUA [U127C A135G] has measured self-cleavage not below 0.8. Thanks!
Criterion met

Does the reported self-cleavage for GUUAACGGUCAUAGGCCAUGGAAACCAGGAGCACCAUUACGCUGCCAGUGAAGAAAUGAACAAAGAAAAUCUGGGCCAGGCAGGCAUCAAAAGAAAUAGUCUUGCGCUCAACCAGAAAGUCUGUAAUCAUUUUAAGGGUA [U26C U39A] fall at or above the 0.8 mark?
Criterion met

Quick check, self-cleavage >= 0.8? GUUAACGGUCAUAGGCCUUGGAAACUAGGAGCACCAUUUCGCUGCCAGUGAAGAAAUGAACAAAGAAAAUCUGGGCCAGGCAGGCAUCAAAAGAAAUAGUCUUGCGCUCAACCAGAAAGUCUGUAAACAUUUUAAGGGUA [A18U U127A]
Criterion met

Is self-cleavage at least 0.8? Consider GUUAACGGUCAUAGGCCAUGGAAACUAGGAGCACCAUUUCGCUGCCAGUGAAGAAAUGAACAAAGAAAAUCUGGGCCAGUCAGGCUUCAAAAGAAAUAGUCUUGCGCUCAACCAGAAAGUCUGUAAUCAUUUUAAGGGUA [G80U A86U]
Criterion not met

Hi, just wondering whether GUUAACGGUCAUAGGCCAUGGAACCUGGGAGCACCAUUUCGCUGCCAGUGAAGAAAUGAACAAAGAAAAUCUGGGCCAGGCAGGCAUCAAAAGAAAUAGUCUUGCGCUCAACCAGAAAGUCUGUAAUCAUUUUAAGGGUA [A24C A27G] shows self-cleavage of 0.8 or higher.
Criterion met

Reported self-cleavage reaches at least 0.8 for GUUAACGGUCAUAGGCCAUGGAAACUAGGAGCACCAUUUCGCCGCCAGUGAAGAAAUGAACAAAGGAAAUCUGGGCCAGGCAGGCAUCAAAAGAAAUAGUCUUGCGCUCAACCAGAAAGUCUGUAAUCAUUUUAAGGGUA [U43C A66G] ?
Criterion met

Evaluate GUUAACGGUCAUAGGCCAUGGAAACUAGGAGCACCAUUUCGCUGCCAGUGAAGAAAAGAACAAAGAAAAUCUGGGCCAGGCAGGCGUCAAAAGAAAUAGUCUUGCGCUCAACCAGAAAGUCUGUAAUCAUUUUAAGGGUA [U57A A86G] : self-cleavage at minimum 0.8?
Criterion met

Confirm if self-cleavage reported for the variant GUUAACGGUCAUAGGCCAUGGAAACUAGGAGCACCAUUACGCUGCCAGUGAAGAAAUGAACAAAGAAAAUCUGGGCCAGGCAGGCAUCAAAAGAAAUAGUCUUGCGCUCAACCAGAGAGUCUGUAAUCAUUUUAAGGGUA [U39A A117G] is 0.8 or above.
Criterion met
